# Assay procedure: qHTS assay for small molecules that induce genotoxicity in human embryonic kidney cells expressing luciferase-tagged ATAD5 - cell viability (AID 651634); also: nearly all actives have a fitted effect of over 25% in size
# Setup conditions: HEK293T ATAD5-luc cells viability, CellTiter-Fluor, 15.5 h; series mostly up to 83.3 µM
Inconclusive results are not listed. Calls of active or inactive are those of the source. Calls follow the shape of the full dose curve.
Readout name: outcome

> print(dat)
                         chem.smiles  recorded.measurement
1  Nc1nc(-c2ccc([N+](=O)[O-])cc2)cs1              inactive
2             O=C(O)CNC(=O)c1ccccc1I              inactive
3                      COc1ccc(C)cc1              inactive
